Origin of values: PubChem BioAssay AID623868

# manual score annotations
Measurement Protocol: non-GIRK thallium flux modulation in mGlu8 cells, confirmation, counter-screen for GIRK activator project, cell-based, HEK-293 rmGlu8, no GIRK (AID 623868);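 note: extra codes mark interference with 3 for fluorescent and 4 for baseline rise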
Conditions Used: thallium flux fluorescence, at 10 µM, actives lie on both sides
Among all 2,100 compounds or so, about 760 (36%) were called active. Only a sample is shown.
Provide a numeric answer; units are not to be included.

| Compound | Observable | Data Value |
| --- | --- | --- |
| N=c1sc2c(n1Cc1ccccc1)CCCC2 | manual score | 0 |
| Fc1ccc(NC2=NCCS2)cc1Cl | manual score | 0 |
| COc1cc(-n2c(=S)[nH]c3ccccc3c2=O)c(Cl)cc1Cl | manual score | 1 |
| O=C(Cc1ccccc1)N1CCN(C/C=C/c2ccccc2)CC1 | manual score | 0 |
| CCN(CC)CCNCC(=O)Nc1ccc(Cl)cc1C(=O)c1ccccc1 | manual score | 0 |
| Nc1c(C(=O)OC2CCCCC2)c2nc3ccccc3nc2n1CC1CCCO1 (configuration not stated) | manual score | -0.5 |

Q. Form field: reported manual score of CCCCn1c(C)c(C(=O)OCC)c2c(CN3CCOCC3)c(O)ccc21
A. 0

Q. Form field: reported manual score of CNC(=O)OCCc1nccn1C
A. 0.5

---

Measurement Protocol: non-GIRK thallium flux modulation in mGlu8 cells, confirmation, counter-screen for GIRK activator project, cell-based, HEK-293 rmGlu8, no GIRK (AID 623868);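 note: extra codes mark interference with 3 for fluorescent and 4 for baseline rise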
Conditions Used: thallium flux fluorescence, at 10 µM, actives lie on both sides
In all, about 2,100 compounds went through this assay and about 760 (36%) were called active. These entries were drawn from the full list.
Observable: manual score
Provide a numeric answer; units are not to be included.

Example results:
| Compound | manual score |
| --- | --- |
| CCN(c1ccc(C(O)(C(=O)OC)C(F)(F)F)cc1)S(=O)(=O)c1ccc(C)cc1 (stereo not drawn) | 0 |
| Cc1nn(C)cc1/C=C1/CC2C3CC=C4CC(O)CCC4(C)C3CCC2(C)C1=O (stereo not drawn) | 0 |

Moving on to another compound below.
Q. Form field: reported manual score of C=CCOC(=O)COc1cc(C)cc2oc(=O)c3c(c12)CCC3
A. -0.5

---

Measurement Protocol: non-GIRK thallium flux modulation in mGlu8 cells, confirmation, counter-screen for GIRK activator project, cell-based, HEK-293 rmGlu8, no GIRK (AID 623868);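 note: extra codes mark interference with 3 for fluorescent and 4 for baseline rise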
Conditions Used: thallium flux fluorescence, at 10 µM, actives lie on both sides
The whole screen tested about 2,100 compounds, of which about 760 (36%) were called active.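 The calls were made as follows: active = thallium-flux fluorescence traces judged by eye to show enhanced or reduced glutamate response, manual score 1 or -1, so both directions (some results past the limit were not filed as active); inactive = the rest, including fluorescent or raised-baseline compounds.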 A selection follows.
Outcome field: choose from YES = active, NO = inactive

| Smiles Representation | Category |
| --- | --- |
| C/C(=N\Nc1ccccc1)c1c(O)n(C)c(=O)n(C)c1=O | NO |
| Cc1ccc2nc(N3CCC(C(=O)N4CCC5(CC4)OCCO5)CC3)sc2c1 | NO |
| O=c1cc(C(F)(F)F)c2cc3c4c(c2o1)CCCN4CCC3 | NO |

Now let's try a different one.
Q. Per the assay record, what outcome was assigned to S=C1CN=C(c2ccccc2Cl)c2cc(Cl)ccc2N1 ?
A. YES
